target: h-GABA-A α5β3γ2 (Homo sapiens (Human), UniProt P18507+P31644); test: [3H]flumazenil competition binding assay, membranes of HEK293 cells expressing human GABAA receptors; details: displacement of [3H]flumazenil 0.5 nM, HEK293 cells expressing human receptors, mean of two determinations; read-out: Ki h-GABA-A α5β3γ2
recorded metric: pKi
Recall that pKi is obtained by taking minus log10 of the concentration measured in molar.

Note to self: pKi of Cc1ccc(-c2noc(C)c2COc2ccc(C(=O)N[C@H]3CC[C@H](OCC(F)F)CC3)nn2)cn1 with h-GABA-A α5β3γ2 (Homo sapiens (Human), UniProt P18507+P31644) was 7.88

Note to self: pKi of Cc1ccc(-c2noc(C)c2COc2ccc(C(=O)N[C@H]3C[C@@H](OCC(F)F)C3)nn2)cn1 with h-GABA-A α5β3γ2 (Homo sapiens (Human), UniProt P18507+P31644) was 7.72

Note to self: pKi of Cc1ccc(-c2noc(C)c2COc2ccc(C(=O)N[C@]3(C)CCOC3)nn2)cn1 (single isomer, unassigned) with h-GABA-A α5β3γ2 (Homo sapiens (Human), UniProt P18507+P31644) was 7.91

Note to self: pKi of Cc1ccc(-c2noc(C)c2COc2ccc(C(=O)NCC3(C)COC3)nn2)cn1 with h-GABA-A α5β3γ2 (Homo sapiens (Human), UniProt P18507+P31644) was 7.87

Note to self: pKi of Cc1ccc(-c2noc(C)c2COc2ccc(C(=O)N[C@@H]3CCCC[C@H]3O)nn2)cn1 with h-GABA-A α5β3γ2 (Homo sapiens (Human), UniProt P18507+P31644) was 8.03

Note to self: pKi of Cc1ccc(-c2noc(C)c2COc2cc3c(cn2)C(=O)N(C)C3)cn1 with h-GABA-A α5β3γ2 (Homo sapiens (Human), UniProt P18507+P31644) was 7.72

Note to self: pKi of Cc1ncc(-c2noc(C)c2COc2ccc(C(=O)NC3CCOCC3)cn2)cc1F with h-GABA-A α5β3γ2 (Homo sapiens (Human), UniProt P18507+P31644) was 7.84

Note to self: pKi of Cc1ccc(-c2noc(C)c2COc2ccc(C(=O)N[C@H]3CCCOC3)nn2)cn1 with h-GABA-A α5β3γ2 (Homo sapiens (Human), UniProt P18507+P31644) was 7.10

Note to self: pKi of Cc1ccc(-c2noc(C)c2COc2ccc(C(=O)N[C@@H]3CCOC[C@@H]3C)nn2)cn1 with h-GABA-A α5β3γ2 (Homo sapiens (Human), UniProt P18507+P31644) was 7.54

Note to self: pKi of Cc1ccc(-c2noc(C)c2COc2ccc(C(=O)NC(C)(CO)CO)nn2)cn1 with h-GABA-A α5β3γ2 (Homo sapiens (Human), UniProt P18507+P31644) was 8.02

Note to self: pKi of Cc1ccc(-c2noc(C)c2COc2ccc(C(=O)N3CC(O)C3)nn2)cn1 with h-GABA-A α5β3γ2 (Homo sapiens (Human), UniProt P18507+P31644) was 8.24

Note to self: pKi of Cc1ccc(-c2noc(C)c2COc2ccc(C(=O)NC3(C)CCSCC3)nn2)cn1 with h-GABA-A α5β3γ2 (Homo sapiens (Human), UniProt P18507+P31644) was 7.81

Note to self: pKi of Cc1ccc(-c2noc(C)c2COc2ccc(C(=O)NC3(C#N)CC3)nn2)cn1 with h-GABA-A α5β3γ2 (Homo sapiens (Human), UniProt P18507+P31644) was 8.11

Note to self: pKi of Cc1ccc(-c2noc(C)c2COc2ccc(C(=O)NC3(C)CCOCC3)cn2)cn1 with h-GABA-A α5β3γ2 (Homo sapiens (Human), UniProt P18507+P31644) was 7.22

Note to self: pKi of CCNC(=O)c1ccc(OCc2c(-c3ccc(C)nc3)noc2C)nn1 with h-GABA-A α5β3γ2 (Homo sapiens (Human), UniProt P18507+P31644) was 8.12

Note to self: pKi of CCNC(=O)c1ccc(OCc2c(-c3ccc(C)nc3)noc2C)nc1 with h-GABA-A α5β3γ2 (Homo sapiens (Human), UniProt P18507+P31644) was 8.85

Note to self: pKi of Cc1ccc(-c2noc(C)c2COc2cnc(C(=O)NCCCC(F)(F)F)cn2)cn1 with h-GABA-A α5β3γ2 (Homo sapiens (Human), UniProt P18507+P31644) was 7.29

Note to self: pKi of Cc1ccc(-c2noc(C)c2COc2ccc(C(=O)NC3CCS(=O)(=O)CC3)nn2)cn1 with h-GABA-A α5β3γ2 (Homo sapiens (Human), UniProt P18507+P31644) was 7.91

Note to self: pKi of Cc1ccc(-c2noc(C3CC3)c2COc2ccc(C(=O)NC3CCOCC3)nn2)nn1 with h-GABA-A α5β3γ2 (Homo sapiens (Human), UniProt P18507+P31644) was 8.59

Note to self: pKi of Cc1ccc(-c2noc(C)c2COc2ccc(C(=O)NCC3COC3)nn2)cn1 with h-GABA-A α5β3γ2 (Homo sapiens (Human), UniProt P18507+P31644) was 8.12

Note to self: pKi of COc1cc(OCc2c(-c3ccc(C)nc3)noc2C)ncc1C(=O)NC1CCOCC1 with h-GABA-A α5β3γ2 (Homo sapiens (Human), UniProt P18507+P31644) was 8.33

Note to self: pKi of Cc1onc(-c2ccc(Cl)nc2)c1COc1ccc(C(=O)NC2CCOCC2)nn1 with h-GABA-A α5β3γ2 (Homo sapiens (Human), UniProt P18507+P31644) was 7.63

Note to self: pKi of CCO[C@@H]1CC[C@@H](NC(=O)c2ccc(OCc3c(-c4ccc(C)nc4)noc3C)nn2)C1 with h-GABA-A α5β3γ2 (Homo sapiens (Human), UniProt P18507+P31644) was 7.90

Note to self: pKi of Cc1ccc(-c2noc(C)c2COc2ccc(C(=O)NCC3CC3)nn2)cn1 with h-GABA-A α5β3γ2 (Homo sapiens (Human), UniProt P18507+P31644) was 7.85

Note to self: pKi of Cc1ccc(-c2noc(C)c2COc2ccc(C(=O)N[C@H]3CC[C@](C)(O)CC3)nn2)cn1 with h-GABA-A α5β3γ2 (Homo sapiens (Human), UniProt P18507+P31644) was 8.00

meta.source: patent US20240279218A1
